test.summary: Metabolic Stability assay, rat liver microsomes
Assay type: in vitro ADME
measurement.setup: read-out: LM T1/2 (min) rat
Mark t for reported half-life at 1 μM of 10 min or greater; mark f for anything smaller.

Hello, I need to know if CC(C)c1ccccc1Oc1ccc(C2CCN(C(=O)c3ncccc3Cl)C2)c(C(N)=O)c1 (centres unmarked) has measured half-life at 1 μM not below 10 min. Thanks!
t

How about CC(C)c1ccccc1Oc1ccc(C2CCN(C(=O)c3ccc(Cl)cn3)C2)c(CO)c1 (centres unmarked) ?
f

How about CCc1cncnc1Oc1ccc(C2CCN(C(=O)c3ncccc3Cl)C2)c(CO)c1 (centres unmarked) ?
t

How about CCc1c(C)cccc1-c1ccc(C2CCN(C(=O)c3ccc(F)cn3)C2)c(CO)c1 (centres unmarked) ?
f

How about CCc1ccccc1-c1ccc(C2CCN(C(=O)c3cccc(Cl)n3)C2)c(CO)c1 (centres unmarked) ?
t

How about CCc1ccccc1-c1ccc(C2CCN(C(=O)c3cc(Cl)ccn3)C2)c(CO)c1 (centres unmarked) ?
f

How about CCc1ccccc1-c1ccc(C2CCN(C(=O)c3ccc(C(F)(F)F)cn3)C2)c(CO)c1 (centres unmarked) ?
t
